Hello, the source for this data is paper PMC9482650, in case you need it.

Molecular target: T1, SHANK3, Q9BYB0
T1 sequence (Q9BYB0 641-750, limits assumed, looked up): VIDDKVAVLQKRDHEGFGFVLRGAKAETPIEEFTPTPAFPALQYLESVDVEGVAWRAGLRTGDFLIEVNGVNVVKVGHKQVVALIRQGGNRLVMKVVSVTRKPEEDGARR
Assay: holdup assay
Parameters: key: below the threshold = too weak to quantify, mostly under pKd 3.1 to 4
Settings: plain residues with an end cap or a label only (N-terminal biotin on a linker: ttds)

Binder: RLQRRRETQV [HPV18-E6, P06463]
pKd: below the threshold
//
Binder: QRQARSETLV [HPV59-E6, Q81964]
pKd: 4.22
//
Binder: SKPTRRETEV [HPV35-E6, P27228]
pKd: below the threshold
//
Binder: RLPKIKETTV [FRMPD4, Q14CM0]
pKd: below the threshold
